system: HUI77 binding to denatured collagen IV; assay: Competition ELISA: synthetic peptides blocking HUI77 binding to heat denatured collagen IV; design: species or system human; details: peptide inhibitor concentration 1000 μM; average of two studies
Square brackets hold non-standard residues; d marks the D form. Ends that are not written are not given here. Hyp = O=C(O)[C@@H]1C[C@@H](O)CN1
RECORDED ENDPOINT: % INHIBITION OF BINDING OF HUI77 TO DENATURED COLLAGEN IV (%)

Some solved cases for reference:
SUBSTANCE: PGAKGLPGP ([Hyp]GAKGLPGP) [SEQ ID NO: 17]
TARGET: HUI77 binding to denatured collagen IV
OUTPUT UNIT: %
EXPERIMENTAL RESULT: 10

SUBSTANCE: PGPPGPPGPY (PGP[Hyp]GP[Hyp]GPY) [SEQ ID NO: 28]
TARGET: HUI77 binding to denatured collagen IV
OUTPUT UNIT: %
EXPERIMENTAL RESULT: 86.5

SUBSTANCE: LPGLPG (L[Hyp]GL[Hyp]G) [SEQ ID NO: 25]
TARGET: HUI77 binding to denatured collagen IV
OUTPUT UNIT: %
EXPERIMENTAL RESULT: 17.5

SUBSTANCE: PGPPGPPGP (PGP[Hyp]GP[Hyp]GP) [SEQ ID NO: 29]
TARGET: HUI77 binding to denatured collagen IV
OUTPUT UNIT: %
EXPERIMENTAL RESULT: 63

SUBSTANCE: LPGPPGPPGP (LPGP[Hyp]GP[Hyp]GP) [SEQ ID NO: 20]
TARGET: HUI77 binding to denatured collagen IV
OUTPUT UNIT: %
EXPERIMENTAL RESULT: 73

SUBSTANCE: CTWPRHHTTDALL [SEQ ID NO: 39, reference compound]
TARGET: HUI77 binding to denatured collagen IV
OUTPUT UNIT: %
EXPERIMENTAL RESULT: 6.5

SUBSTANCE: LPGFPGC [SEQ ID NO: 37, reference compound]
TARGET: HUI77 binding to denatured collagen IV
OUTPUT UNIT: %
EXPERIMENTAL RESULT: 8.5

SUBSTANCE: LPGSPG (L[Hyp]GS[Hyp]G) [SEQ ID NO: 26]
TARGET: HUI77 binding to denatured collagen IV
OUTPUT UNIT: %
EXPERIMENTAL RESULT: 8.5

1. GPPGPPGP (GPXGPXGP; MOD_RES (3) Hydroxyproline; MOD_RES (6) Hydroxyproline) [SEQ ID NO: 31]
2. LPGTPG (L[Hyp]GT[Hyp]G) [SEQ ID NO: 27]
Which of the two items, 1 and 2 , has the greater recorded % INHIBITION OF BINDING OF HUI77 TO DENATURED COLLAGEN IV? // return label of chosen record
1
(1: 44%, 2: 6%)
